Task for the reader: assign each of the following molecules its reported TERMINAL_BW.
- Organism: Rattus norvegicus
- assay: Open TG-GATES - Regimen: Single
- Type: toxicity, organism-based, Sprague-Dawley
- Design: regimen Single, gender Male, age 6 weeks
- measurement.conditions: in vivo, po, 1000 mg/kg, 24 h, route gavage, dose level High
Unit g implied. Number only.

[Q] Quick one: TERMINAL_BW for `COC(=O)C1=C(C)NC(C)=C(C(=O)OC)C1c1ccccc1[N+](=O)[O-]` ?
[A] 197.1

[Q] Lookup `CNC(=C[N+](=O)[O-])NCCSCc1ccc(CN(C)C)o1`
[A] 228.9

[Q] Quick one: `O=C(OC[C@H]1O[C@@H](OC(=O)c2cc(O)c(O)c(OC(=O)c3cc(O)c(O)c(O)c3)c2)[C@H](OC(=O)c2cc(O)c(O)c(OC(=O)c3cc(O)c(O)c(O)c3)c2)[C@@H](OC(=O)c2cc(O)c(O)c(OC(=O)c3cc(O)c(O)c(O)c3)c2)[C@@H]1OC(=O)c1cc(O)c(O)c(OC(=O)c2cc(O)c(O)c(O)c2)c1)c1cc(O)c(O)c(OC(=O)c2cc(O)c(O)c(O)c2)c1`
[A] 198.6

[Q] Similarly, `CN/C(=N/CCSCc1nc[nH]c1C)NC#N` ?
[A] 223

[Q] Same read-out for `Cc1nnc2n1-c1ccc(Cl)cc1C(c1ccccc1Cl)=NC2` ?
[A] 208.3

----------
Exercise: for every item that follows, state its recorded KIDNEY_R.
- Organism: Rattus norvegicus
- assay: Open TG-GATES - Regimen: Daily Repeat
- Assay type: toxicity, organism-based, Sprague-Dawley
- Design: regimen Daily Repeat, gender Male, age 6 weeks
- measurement.conditions: in vivo, po, 300 mg/kg, […], tissue Kidney, route gavage, dose level Middle, time 28 day
Quick note: give the figure in g, leave out the unit.

[Q] Entry CNC(=C[N+](=O)[O-])NCCSCc1ccc(CN(C)C)o1 [RANITIDINE] : reported KIDNEY_R = ?
[A] 1.5

[Q] Next compound: CCOc1ccc(NC(C)=O)cc1 [PHENACETIN]
[A] 1.4

[Q] Now try O=C(OC[C@H]1O[C@@H](OC(=O)c2cc(O)c(O)c(OC(=O)c3cc(O)c(O)c(O)c3)c2)[C@H](OC(=O)c2cc(O)c(O)c(OC(=O)c3cc(O)c(O)c(O)c3)c2)[C@@H](OC(=O)c2cc(O)c(O)c(OC(=O)c3cc(O)c(O)c(O)c3)c2)[C@@H]1OC(=O)c1cc(O)c(O)c(OC(=O)c2cc(O)c(O)c(O)c2)c1)c1cc(O)c(O)c(OC(=O)c2cc(O)c(O)c(O)c2)c1 [TANNIC ACID] .
[A] 1.4

[Q] Can you check CN/C(=N/CCSCc1nc[nH]c1C)NC#N [CIMETIDINE] next?
[A] 1.4

[Q] Now the same for Cc1nnc2n1-c1ccc(Cl)cc1C(c1ccccc1Cl)=NC2 [TRIAZOLAM]
[A] 1.4

[Q] Would you mind doing COC(=O)C1=C(C)NC(C)=C(C(=O)OC)C1c1ccccc1[N+](=O)[O-] [NIFEDIPINE] as well?
[A] 1.2

----------
- Organism: Rattus norvegicus
- assay: Open TG-GATES - Regimen: Daily Repeat
- Type: toxicity, organism-based, Sprague-Dawley
- Parameters: regimen Daily Repeat, gender Male, age 6 weeks
- measurement.conditions: in vivo, po, 0 mg/kg, […], tissue Plasma, route gavage, dose level Control, time 28 day
measurement.kind: TG (mg/dL)
Give a bare numeral; the unit mg/dL is implied.

[Q] Entry under review: CN1C(=O)CCS(=O)(=O)C1c1ccc(Cl)cc1 (stereo not drawn) . Reported TG?
[A] 88

[Q] Proceed to CN(C)CCC(c1ccc(Cl)cc1)c1ccccn1 (stereo not drawn)
[A] 174

[Q] Entry `Cc1nnc2n1-c1ccc(Cl)cc1C(c1ccccc1Cl)=NC2` please
[A] 159.8

[Q] Now this one: `CCCc1cc(=O)[nH]c(=S)[nH]1`
[A] 153.8

[Q] Same question for `Brc1ccccc1` please.
[A] 158.4

[Q] Then this compound: `O=C(OC[C@H]1O[C@@H](OC(=O)c2cc(O)c(O)c(OC(=O)c3cc(O)c(O)c(O)c3)c2)[C@H](OC(=O)c2cc(O)c(O)c(OC(=O)c3cc(O)c(O)c(O)c3)c2)[C@@H](OC(=O)c2cc(O)c(O)c(OC(=O)c3cc(O)c(O)c(O)c3)c2)[C@@H]1OC(=O)c1cc(O)c(O)c(OC(=O)c2cc(O)c(O)c(O)c2)c1)c1cc(O)c(O)c(OC(=O)c2cc(O)c(O)c(O)c2)c1`
[A] 141.4

[Q] # repeat for `Nc1c2c(nc3ccccc13)CCCC2`
[A] 144.6

[Q] Same question, NC1=NC(=O)C(c2ccccc2)O1 (stereo not drawn) this time
[A] 215

[Q] Repeat for the following compound: `CN/C(=N/CCSCc1nc[nH]c1C)NC#N`
[A] 119.8

[Q] Next record, please: `COC(=O)C1=C(C)NC(C)=C(C(=O)OC)C1c1ccccc1[N+](=O)[O-]`
[A] 175.2

[Q] How about this compound: `CCOc1ccc(NC(C)=O)cc1`
[A] 162.4

[Q] # repeat for `CNC(=C[N+](=O)[O-])NCCSCc1ccc(CN(C)C)o1`
[A] 85.8

[Q] How about this compound: `CC(C)NNC(=O)c1ccncc1`
[A] 137.6

----------
- Organism: Rattus norvegicus
- assay: Open TG-GATES - Regimen: Single
- Assay type: toxicity, organism-based, Sprague-Dawley
- Design: regimen Single, gender Male, age 6 weeks
- measurement.conditions: in vivo, po, 1000 mg/kg, 6 h, tissue Plasma, route gavage, dose level High
Assign RALB to each entry below.
// units = g/dL; emit number, no label

[Q] Look up RALB: `CNC(=C[N+](=O)[O-])NCCSCc1ccc(CN(C)C)o1`
[A] 3.4

[Q] Further, for `COC(=O)C1=C(C)NC(C)=C(C(=O)OC)C1c1ccccc1[N+](=O)[O-]` ?
[A] 2.6

[Q] And what about the molecule `Cc1nnc2n1-c1ccc(Cl)cc1C(c1ccccc1Cl)=NC2` ?
[A] 2.5

[Q] For `CN/C(=N/CCSCc1nc[nH]c1C)NC#N` then?
[A] 3.4

[Q] Then what about the molecule `O=C(OC[C@H]1O[C@@H](OC(=O)c2cc(O)c(O)c(OC(=O)c3cc(O)c(O)c(O)c3)c2)[C@H](OC(=O)c2cc(O)c(O)c(OC(=O)c3cc(O)c(O)c(O)c3)c2)[C@@H](OC(=O)c2cc(O)c(O)c(OC(=O)c3cc(O)c(O)c(O)c3)c2)[C@@H]1OC(=O)c1cc(O)c(O)c(OC(=O)c2cc(O)c(O)c(O)c2)c1)c1cc(O)c(O)c(OC(=O)c2cc(O)c(O)c(O)c2)c1` ?
[A] 3.4

----------
So I've got a bunch of compounds here, and I need their RBC values.
- Organism: Rattus norvegicus
- assay: Open TG-GATES - Regimen: Single
- Assay type: toxicity, organism-based, Sprague-Dawley
- Set-up: regimen Single, gender Male, age 6 weeks
- measurement.conditions: in vivo, po, 100 mg/kg, 3 h, tissue Blood, route gavage, dose level Low
Provide the measurement as a number trailed by its unit.

[Q] Any idea what RBC was measured for `O=C(OC[C@H]1O[C@@H](OC(=O)c2cc(O)c(O)c(OC(=O)c3cc(O)c(O)c(O)c3)c2)[C@H](OC(=O)c2cc(O)c(O)c(OC(=O)c3cc(O)c(O)c(O)c3)c2)[C@@H](OC(=O)c2cc(O)c(O)c(OC(=O)c3cc(O)c(O)c(O)c3)c2)[C@@H]1OC(=O)c1cc(O)c(O)c(OC(=O)c2cc(O)c(O)c(O)c2)c1)c1cc(O)c(O)c(OC(=O)c2cc(O)c(O)c(O)c2)c1` ?
[A] 587 x10_4/ul

[Q] Repeat with `COC(=O)C1=C(C)NC(C)=C(C(=O)OC)C1c1ccccc1[N+](=O)[O-]`
[A] 625.8 x10_4/ul

[Q] Further, for `CN/C(=N/CCSCc1nc[nH]c1C)NC#N` ?
[A] 596.2 x10_4/ul

[Q] Please do the same for `CNC(=C[N+](=O)[O-])NCCSCc1ccc(CN(C)C)o1` as well.
[A] 616 x10_4/ul

[Q] Also `Cc1nnc2n1-c1ccc(Cl)cc1C(c1ccccc1Cl)=NC2` , if possible.
[A] 661.2 x10_4/ul

----------
- Species on record: Rattus norvegicus
- assay: Open TG-GATES - Regimen: Daily Repeat
- Type: toxicity, organism-based, Sprague-Dawley
- Design: regimen Daily Repeat, gender Male, age 6 weeks
- measurement.conditions: in vivo, po, 300 mg/kg, 72 h, tissue Plasma, route gavage, dose level Middle, time 3 day
measurement.kind: Na (meq/L)
Write the answer as a number in meq/L, unit excluded.

[Q] What value of measured Na is listed for `O=C(OC[C@H]1O[C@@H](OC(=O)c2cc(O)c(O)c(OC(=O)c3cc(O)c(O)c(O)c3)c2)[C@H](OC(=O)c2cc(O)c(O)c(OC(=O)c3cc(O)c(O)c(O)c3)c2)[C@@H](OC(=O)c2cc(O)c(O)c(OC(=O)c3cc(O)c(O)c(O)c3)c2)[C@@H]1OC(=O)c1cc(O)c(O)c(OC(=O)c2cc(O)c(O)c(O)c2)c1)c1cc(O)c(O)c(OC(=O)c2cc(O)c(O)c(O)c2)c1` ?
[A] 139

[Q] Field entry: `CN/C(=N/CCSCc1nc[nH]c1C)NC#N`
[A] 140.8

[Q] Entry to check: `CCOc1ccc(NC(C)=O)cc1`
[A] 143.2

[Q] Input `COC(=O)C1=C(C)NC(C)=C(C(=O)OC)C1c1ccccc1[N+](=O)[O-]`
[A] 144.4

[Q] Also check `Cc1nnc2n1-c1ccc(Cl)cc1C(c1ccccc1Cl)=NC2`
[A] 141.6

[Q] Lookup `CNC(=C[N+](=O)[O-])NCCSCc1ccc(CN(C)C)o1`
[A] 141.2
